experimental_details: Selectivity index, ratio of CC50 for human MT4 cells to EC50 for HIV1 3B
Format: toxicity, cell-based
details: read-out: Ratio CC50/EC50
measured_property: selectivity ratio

Reference set (3 entries):
- compound_structure_string: "Cc1ccc(C(C)C)c(OCc2nnc(SCC(=O)Nc3ccc(Cl)cc3)n2Cc2ccccc2)c1"
  measured_property: "selectivity ratio"
  value: "< 1"
- compound_structure_string: "Cc1ccc(C(C)C)c(OCC(=O)NNC(=S)NCc2ccccc2)c1"
  measured_property: "selectivity ratio"
  value: "< 1"
- compound_structure_string: "Cc1ccc(C(C)C)c(OCc2nnc(SCC(=O)Nc3ccc(S(N)(=O)=O)cc3)n2Cc2ccccc2)c1"
  measured_property: "selectivity ratio"
  value: "< 1"

For each entry beneath this line, provide reported selectivity ratio.
1. CC(=O)Nc1ccc(OCc2nnc(SCC(=O)Nc3ccc(Cl)cc3)n2Cc2ccccc2)cc1
2. Cc1cn([C@H]2C[C@H](N=[N+]=[N-])[C@@H](CO)O2)c(=O)[nH]c1=O
3. O=c1[nH]cnc2c1ncn2[C@H]1CC[C@@H](CO)O1
4. O=C(CSc1nnc(COc2ccc3ccccc3c2)n1Cc1ccccc1)Nc1ccc([N+](=O)[O-])cc1
5. O=C(CSc1nnc(COc2ccc3ccccc3c2)n1Cc1ccccc1)Nc1ccc(Cl)cc1
6. Cc1ccc(C(C)C)c(OCc2n[nH]c(=S)n2Cc2ccccc2)c1
7. CC(=O)Nc1ccc(OCc2nnc(SCC(=O)Nc3ccc([N+](=O)[O-])cc3)n2Cc2ccccc2)cc1

1. < 1
2. > 11600
3. > 24
4. ≤ 1
5. ≤ 1
6. < 1
7. < 1

Could you report selectivity ratio for every entry in the following list?
1. Cc1ccc(C(C)C)c(OCc2nnc(SCC(=O)Nc3ccc(Br)cc3)n2Cc2ccccc2)c1
2. CCOC(=O)c1ccc(NC(=O)CSc2nnc(COc3ccc(NC(C)=O)cc3)n2Cc2ccccc2)cc1

< 1
< 1

Source: ChEMBL document CHEMBL3861959
